For each entry below, report its half-life at 1 µM value.
Experiment Description: Metabolic stability in cryopreserved hepatocytes (disappearance, half-life, CLint)
Condition Set: Sprague Dawley, rat, pooled cryopreserved hepatocytes, pH 7.4
Numbers only, in min.

Field: example entries. Status: answers known.
{"Smiles": "CCCCCCCCCCCCCCCCOCCOCCOCCOCCOCCOCCOCCOCCO", "Result Units": "min", "half-life at 1 µM": 6.6}
{"Smiles": "CCCCCCCCOCCOCCOCCOCCO", "Result Units": "min", "half-life at 1 µM": 3.2}

Then there is this compound:
Request: What value of measured half-life at 1 µM is listed for CCCCCCCCCCOCCOCCOCCOCCOCCO ?
Result: 2.9

###

Experiment Description: Metabolic stability in liver S9 fraction (disappearance, half-life, CLint)
Condition Set: human, pooled liver S9, pH 7.4
Experimental Endpoint: microsomal CLint at 10 µM
Answer with the value and then the unit.

{"Smiles": "CCCCCCCCCCOCCOCCOCCOCCOCCO", "microsomal CLint at 10 µM": "170 µL/min/mg"}
{"Smiles": "CCCCCCCCOCCOCCOCCOCCO", "microsomal CLint at 10 µM": "33.6 µL/min/mg"}

Then there is this compound:
Request: What value of measured microsomal CLint at 10 µM is listed for CCCCCCCCCCCCOCCOCCOCCOCCO ?
Result: 51.2 µL/min/mg

###

Experiment Description: Metabolic stability in liver S9 fraction (disappearance, half-life, CLint)
Condition Set: human, s9, pH 7.4
Experimental Endpoint: half-life at 1 µM

Request: What value of measured half-life at 1 µM is listed for Cc1ncc2n1-c1ccc(Cl)cc1C(c1ccccc1F)=NC2 [midazolam, Midazolam, reference compound] ?
Result: < 6.3 min

###

Experiment Description: Metabolic stability in liver S9 fraction (disappearance, half-life, CLint)
Condition Set: human, pooled liver S9, pH 7.4, Half-lives t1/2, Liver S9, 1 μM
Experimental Endpoint: half-life at 1 µM (min)
Give bare numbers, in min.

{"Compound": "CCCCCCCCCCOCCOCCOCCOCCOCCO [C10EO5]", "half-life at 1 µM, min": 2}
{"Compound": "CCCCCCCCOCCOCCOCCOCCO [C8EO4]", "half-life at 1 µM, min": 11.8}

Request: What value of measured half-life at 1 µM is listed for CCCCCCCCCCCCCCCCOCCOCCOCCOCCOCCOCCOCCOCCO [C16EO8] ?
Result: 139

###

Experiment Description: Metabolic stability in liver S9 fraction (disappearance, half-life, CLint)
Condition Set: Sprague-Dawley, rat, pooled liver S9, pH 7.4
Experimental: Calibration curves were generated using an external standard. Intrinsic in vitro clearance was calculated as follows: […]
The threshold is 20 µL/min/mg. Values of microsomal CLint at 1 µM beneath it are tagged Met; values meeting or exceeding it are tagged Not met.

{"Smiles": "CCCCCCCCCCCCOCCOCCOCCOCCO", "Class Name": "Met"}
{"Smiles": "CCCCCCCCCCOCCOCCOCCOCCOCCO", "Class Name": "Not met"}
{"Smiles": "CCCCCCCCCCCCCCCCCCOCCOCCOCCO", "Class Name": "Met"}

Request: Hello, I'm reviewing records and need to know if microsomal CLint at 1 µM of CCCCCCCCOCCOCCOCCOCCO is below 20 µL/min/mg. Could you check?
Result: Met

Request: // next record CCCCCCCCCCCCCCCCOCCOCCOCCOCCOCCOCCOCCOCCO
Result: Not met

###

Experiment Description: Metabolic stability in liver S9 fraction (disappearance, half-life, CLint)
Condition Set: Sprague-Dawley, rat, s9, pH 7.4
Experimental Endpoint: half-life at 1 µM (min)
One number for each entry, in min.

Request: What value of measured half-life at 1 µM is listed for Cc1ncc2n1-c1ccc(Cl)cc1C(c1ccccc1F)=NC2 [midazolam, Midazolam, reference compound] ?
Result: 11.8

###

Experiment Description: Metabolic stability in liver S9 fraction (disappearance, half-life, CLint)
Condition Set: human, pooled liver S9, pH 7.4, Half-lives t1/2, Liver S9, 10 μM
For each entry below, report its half-life at 10 µM value.
One number for each entry, in min.

Field: example entries. Status: answers known.
{"Compound": "CCCCCCCCCCOCCOCCOCCOCCOCCO [C10EO5]", "Result Units": "min", "half-life at 10 µM": 2.7}
{"Compound": "CCCCCCCCOCCOCCOCCOCCO [C8EO4]", "Result Units": "min", "half-life at 10 µM": 13.8}

Request: What value of measured half-life at 10 µM is listed for CCCCCCCCCCCCOCCOCCOCCOCCO [C12EO4] ?
Result: 9

###

Experiment Description: Metabolic stability in cryopreserved hepatocytes (disappearance, half-life, CLint)
Condition Set: Syrian, hamster, pooled cryopreserved hepatocytes, pH 7.4
For each entry below, report its half-life at 10 µM value.
Answer with the value and then the unit.

Field: example entries. Status: answers known.
{"Smiles": "CCCCCCCCCCOCCOCCOCCOCCOCCO", "half-life at 10 µM": "10.6 min"}
{"Smiles": "CCCCCCCCOCCOCCOCCOCCO", "half-life at 10 µM": "6.5 min"}
{"Smiles": "CCCCCCCCCCCCOCCOCCOCCOCCO", "half-life at 10 µM": "17 min"}

Then there is this compound:
Request: What value of measured half-life at 10 µM is listed for CCCCCCCCCCCCCCCCOCCOCCOCCOCCOCCOCCOCCOCCO ?
Result: 30 min

###

Experiment Description: Metabolic stability in cryopreserved hepatocytes (disappearance, half-life, CLint)
Condition Set: Sprague Dawley, rat, pooled cryopreserved hepatocytes, pH 7.4
Experimental Endpoint: half-life at 10 µM
Answer with the value and then the unit.

Field: example entries. Status: answers known.
{"Smiles": "CCCCCCCCCCCCOCCOCCOCCOCCO", "half-life at 10 µM": "8.9 min"}
{"Smiles": "CCCCCCCCOCCOCCOCCOCCO", "half-life at 10 µM": "3.6 min"}
{"Smiles": "CCCCCCCCCCCCCCCCOCCOCCOCCOCCOCCOCCOCCOCCO", "half-life at 10 µM": "9.2 min"}

Then there is this compound:
Request: What value of measured half-life at 10 µM is listed for CCCCCCCCCCOCCOCCOCCOCCOCCO ?
Result: 1.9 min

###

Experiment Description: Metabolic stability in liver S9 fraction (disappearance, half-life, CLint)
Condition Set: human, pooled liver S9, pH 7.4
Experimental Endpoint: microsomal CLint at 1 µM
Answer with the value and then the unit.

{"Smiles": "CCCCCCCCCCCCCCCCOCCOCCOCCOCCOCCOCCOCCOCCO", "microsomal CLint at 1 µM": "3.33 µL/min/mg"}
{"Smiles": "CCCCCCCCOCCOCCOCCOCCO", "microsomal CLint at 1 µM": "39.2 µL/min/mg"}
{"Smiles": "CCCCCCCCCCCCCCCCCCOCCOCCOCCO", "microsomal CLint at 1 µM": "15.9 µL/min/mg"}

Then there is this compound:
Request: What value of measured microsomal CLint at 1 µM is listed for CCCCCCCCCCOCCOCCOCCOCCOCCO ?
Result: 234 µL/min/mg

###

Experiment Description: Metabolite profiling by LC-MS in liver S9
Condition Set: human liver S9
Experimental Endpoint: Number of metabolites detected
Numbers only.

Field: example entries. Status: answers known.
{"Molecule": "CCCCCCCCCCOCCOCCOCCOCCOCCO [C10EO5]", "Number of metabolites detected": 26}
{"Molecule": "CCCCCCCCCCCCCCCCCCOCCOCCOCCO [C18EO3]", "Number of metabolites detected": 11}
{"Molecule": "CCCCCCCCCCCCCCCCOCCOCCOCCOCCOCCOCCOCCOCCO [C16EO8]", "Number of metabolites detected": 33}

Request: What value of measured Number of metabolites detected is listed for CCCCCCCCOCCOCCOCCOCCO [C8EO4] ?
Result: 17

###

Experiment Description: Metabolic stability in cryopreserved hepatocytes (disappearance, half-life, CLint)
Condition Set: human, pooled cryopreserved hepatocytes, pH 7.4
Experimental Endpoint: half-life at 1 µM (min)
One number for each entry, in min.

Field: example entries. Status: answers known.
{"Smiles": "CCCCCCCCOCCOCCOCCOCCO", "Result Units": "min", "half-life at 1 µM": 12.9}
{"Smiles": "CCCCCCCCCCCCCCCCOCCOCCOCCOCCOCCOCCOCCOCCO", "Result Units": "min", "half-life at 1 µM": 39}

Then there is this compound:
Request: What value of measured half-life at 1 µM is listed for CCCCCCCCCCOCCOCCOCCOCCOCCO ?
Result: 4

###

Experiment Description: Metabolic stability in liver S9 fraction (disappearance, half-life, CLint)
Condition Set: Sprague-Dawley, rat, pooled liver S9, pH 7.4
Description: Calibration curves were generated using an external standard. Intrinsic in vitro clearance was calculated as follows: […]
Experimental Endpoint: half-life at 1 µM (min)
Numbers only, in min.

Field: example entries. Status: answers known.
{"Smiles": "CCCCCCCCCCCCCCCCCCOCCOCCOCCO", "half-life at 1 µM, min": 32}
{"Smiles": "CCCCCCCCCCCCOCCOCCOCCOCCO", "half-life at 1 µM, min": 26}
{"Smiles": "CCCCCCCCCCCCCCCCOCCOCCOCCOCCOCCOCCOCCOCCO", "half-life at 1 µM, min": 16}
{"Smiles": "CCCCCCCCOCCOCCOCCOCCO", "half-life at 1 µM, min": 37.8}

Then there is this compound:
Request: What value of measured half-life at 1 µM is listed for CCCCCCCCCCOCCOCCOCCOCCOCCO ?
Result: 8.3
